Quick reference: Phage binding ELISA CD28 scFv signal in presence of CD28 of the listed items.
target: Anti-CD28 scFv (VH-linker 1-VL) (biotinylated for capture on neutravidin plates); assay: phage ELISA, scFv captured on plate, competitor soluble CD28;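 also: crude clonal phage supernatants added to wells pre-incubated with soluble CD28 or with blocking buffer only as control, bound phage read out with HRP-linked anti-M13 antibody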
Sequence (scFv, as listed by the source): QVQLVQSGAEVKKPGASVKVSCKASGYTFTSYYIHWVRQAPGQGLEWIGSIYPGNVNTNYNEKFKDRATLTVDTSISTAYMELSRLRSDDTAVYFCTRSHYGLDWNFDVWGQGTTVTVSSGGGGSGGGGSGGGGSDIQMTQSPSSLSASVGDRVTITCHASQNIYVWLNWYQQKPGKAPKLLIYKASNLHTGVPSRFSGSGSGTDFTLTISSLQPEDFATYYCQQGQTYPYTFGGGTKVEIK
Enter a number only.

Answered cases to consult:
Give its Phage binding ELISA CD28 scFv signal in presence of CD28 value. Item: MDWCPTDMWIVCFA [Phage-208] 0.172

Give its Phage binding ELISA CD28 scFv signal in presence of CD28 value. Item: MDWCPKFLWHECFS [Phage-135] 0.142

Give its Phage binding ELISA CD28 scFv signal in presence of CD28 value. Item: MHWCPIYLWDECFN [Phage-136] 0.193

Give its Phage binding ELISA CD28 scFv signal in presence of CD28 value. Item: MDWCPRDLWHACFS [Phage-120] 0.173

Give its Phage binding ELISA CD28 scFv signal in presence of CD28 value. Item: MDWCPKDLWHECFN [Phage-168] 0.1

Continuing:
Give its Phage binding ELISA CD28 scFv signal in presence of CD28 value. Item: MDWCPRALWNECFA [Phage-127] 0.375

Give its Phage binding ELISA CD28 scFv signal in presence of CD28 value. Item: MDWCPRHLWDECFF [Phage-118] 0.663

Give its Phage binding ELISA CD28 scFv signal in presence of CD28 value. Item: MDWCPKHMWFMCFN [Phage-195] 0.372

Give its Phage binding ELISA CD28 scFv signal in presence of CD28 value. Item: IDWCPQDMWFYCFN [Phage-209] 0.16

Reference for the values: patent US20230357447A1
